- TARGET: E3 ubiquitin-protein ligase RBX1 (Homo sapiens) + Cullin-1 (Homo sapiens) (UniProt P62877+Q13616)
- Sequence (P62877 whole entry, looked up): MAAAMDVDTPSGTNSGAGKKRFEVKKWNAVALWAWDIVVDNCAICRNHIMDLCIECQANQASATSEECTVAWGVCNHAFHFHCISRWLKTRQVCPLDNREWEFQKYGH
- Sequence (Q13616 whole entry, looked up): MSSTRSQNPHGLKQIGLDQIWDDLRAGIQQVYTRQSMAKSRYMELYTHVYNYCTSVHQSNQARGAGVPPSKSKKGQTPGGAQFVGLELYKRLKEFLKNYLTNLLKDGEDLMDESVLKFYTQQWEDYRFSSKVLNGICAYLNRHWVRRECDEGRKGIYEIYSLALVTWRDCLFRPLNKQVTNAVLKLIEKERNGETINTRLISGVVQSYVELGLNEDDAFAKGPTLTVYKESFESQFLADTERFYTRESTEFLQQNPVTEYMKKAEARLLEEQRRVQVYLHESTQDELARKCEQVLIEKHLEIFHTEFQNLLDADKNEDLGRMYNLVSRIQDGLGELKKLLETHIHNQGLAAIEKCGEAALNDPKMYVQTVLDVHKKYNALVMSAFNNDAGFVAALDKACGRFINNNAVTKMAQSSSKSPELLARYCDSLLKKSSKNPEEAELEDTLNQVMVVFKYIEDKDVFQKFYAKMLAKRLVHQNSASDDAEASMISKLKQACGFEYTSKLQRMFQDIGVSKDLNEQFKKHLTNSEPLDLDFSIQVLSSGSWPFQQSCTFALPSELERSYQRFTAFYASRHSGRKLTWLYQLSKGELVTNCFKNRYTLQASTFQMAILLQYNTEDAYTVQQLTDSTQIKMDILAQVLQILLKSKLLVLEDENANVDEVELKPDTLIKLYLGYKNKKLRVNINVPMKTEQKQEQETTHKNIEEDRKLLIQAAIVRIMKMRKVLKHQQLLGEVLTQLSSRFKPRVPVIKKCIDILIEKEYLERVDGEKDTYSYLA
- PROTOCOL TEXT: ROC1-CUL1 CTD ubiquitination inhibitors, dose response, biochemical, FRET, E1/Cdc34 cascade (AID 1347408)
- CONDITION DETAILS: in vitro di-Ub FRET
Results filed as inconclusive are left out. Calls of active or inactive are those of the source.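 How the source made its calls: active means IC50 half-inhibiting concentration at or below 10 micromolar; inconclusive means IC50 above 10 and up to 20 micromolar; inactive means IC50 above 20 micromolar.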
Please reply with one of these outcomes: Y (active), N (inactive)

Would you please look over these solved cases?
                                 cpd_smiles  class
0             CCCCCCCCCOc1ccc(C#CC(=O)O)cc1      Y
1  NCCCSc1nc2c(c(=O)n1Cc1ccccc1)C1(CCCCC1)Cc1ccccc1-2      N
2    CNc1ccccc(C(=O)C=Cc2ccc3c(c2)OCO3)c1=O      N

Inquiry: Fill in: this test's call for CCNc1ccc(Br)cc(C(=O)/C=C/c2c(Cl)cccc2Cl)c1=O is ___
Reply text: N

Inquiry: Field: outcome | Entry: CN(CCC(=O)C=Cc1ccc(Cl)c(Cl)c1)CCc1ccc2c(c1)OCO2
Reply text: N

Inquiry: How did this test come out for Cc1ccc([C@@H]2Nc3c(ccc(C(=O)O)c3C)[C@@H]3C=CC[C@@H]32)cc1 ?
Reply text: N

* * *

- TARGET: E3 ubiquitin-protein ligase RBX1 (Homo sapiens) + Cullin-1 (Homo sapiens) (UniProt P62877+Q13616)
- PROTOCOL TEXT: ROC1-CUL1 CTD ubiquitination inhibitors, dose response, biochemical, FRET, E1/Cdc34 cascade (AID 1347408)
- CONDITION DETAILS: in vitro di-Ub FRET
Inconclusive results are not listed. The source made the active and inactive calls.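 How the source made its calls: active means IC50 half-inhibiting concentration at or below 10 micromolar; inconclusive means IC50 above 10 and up to 20 micromolar; inactive means IC50 above 20 micromolar.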
Pick one and only one: 1 (yes) for active, 0 (no) for inactive

Worked set:
>>> print(df.to_string())
                                 cpd_smiles    class
0  Cc1ccc2c(c1)-c1c(c(C(=O)N3CCN(c4cc(C)ccc4C)CC3)nn1C)CS2   0 (no)
1  CCOc1ccc2nc3cc(NC(=O)c4ccco4)ccc3c(N)c2c1  1 (yes)
2  COc1ccc(C=C2C(=O)N(Cc3ccco3)C(=O)N(C(C)C)C2=O)cc1   0 (no)
3  CCOc1cccc2c1N[C@@H](c1ccc(C(=O)O)cc1)[C@H]1CC=C[C@@H]21   0 (no)

Inquiry: Called result for Cc1ccc(NC(=O)c2ccc(Cl)cc2Cl)c(S(=O)(=O)O)c1
Reply text: 0 (no)
